meta.source: the supplement of paper PMC10307832

Form field: relative viability (one value per entry).
System: HCC-827
Assay: relative viability (nuclei count vs DMSO), 5 days (fraction); higher = more cells survive
Settings: first compound 0.1581 µM
test_readout: relative viability

INSERT INTO results (compound, test_readout, result_number) VALUES
  ('CC1(C)CCC(c2ccc(Cl)cc2)=C(CN2CCN(c3ccc(C(=O)NS(=O)(=O)c4ccc(N[C@H](CCN5CCOCC5)CSc5ccccc5)c(S(=O)(=O)C(F)(F)F)c4)cc3)CC2)C1 [Navitoclax] + CC(=O)c1c(C)c2cnc(Nc3ccc(N4CCNCC4)cn3)nc2n(C2CCCC2)c1=O [Palbociclib] (partner 0.5 µM)', 'relative viability', 0.477),
  ('CC1(C)CCC(c2ccc(Cl)cc2)=C(CN2CCN(c3ccc(C(=O)NS(=O)(=O)c4ccc(N[C@H](CCN5CCOCC5)CSc5ccccc5)c(S(=O)(=O)C(F)(F)F)c4)cc3)CC2)C1 [Navitoclax] + CS(=O)(=O)CCNCc1ccc(-c2ccc3ncnc(Nc4ccc(OCc5cccc(F)c5)c(Cl)c4)c3c2)o1 [Lapatinib] (partner 2 µM)', 'relative viability', 0.21),
  ('CC1(C)CCC(c2ccc(Cl)cc2)=C(CN2CCN(c3ccc(C(=O)NS(=O)(=O)c4ccc(N[C@H](CCN5CCOCC5)CSc5ccccc5)c(S(=O)(=O)C(F)(F)F)c4)cc3)CC2)C1 [Navitoclax] + COc1cc2c(Oc3ccc(NC(=O)C4(C(=O)Nc5ccc(F)cc5)CC4)cc3F)ccnc2cc1OCCCN1CCOCC1 [Foretinib] (partner 0.25 µM)', 'relative viability', 1.03);

----------
Test system: NCI-H2170
Assay: relative viability (nuclei count vs DMSO), 5 days (fraction); higher = more cells survive
Conditions: first compound 1.265 µM
test_readout: relative viability

INSERT INTO results (compound, test_readout, result_number) VALUES
  ('O=C(O)c1ccc(-c2c[nH]c3ncc(-c4ccccc4)cc23)cc1C1CCCC1 + CC(=O)Nc1cccc(-n2c(=O)n(C3CC3)c(=O)c3c(Nc4ccc(I)cc4F)n(C)c(=O)c(C)c32)c1 [Trametinib] (partner 0.02 µM)', 'relative viability', 0.79),
  ('O=C(O)c1ccc(-c2c[nH]c3ncc(-c4ccccc4)cc23)cc1C1CCCC1 + COc1cc2c(Oc3ccc(NC(=O)C4(C(=O)Nc5ccc(F)cc5)CC4)cc3F)ccnc2cc1OCCCN1CCOCC1 [Foretinib] (partner 0.25 µM)', 'relative viability', 0.777),
  ('O=C(O)c1ccc(-c2c[nH]c3ncc(-c4ccccc4)cc23)cc1C1CCCC1 + CC(=O)c1c(C)c2cnc(Nc3ccc(N4CCNCC4)cn3)nc2n(C2CCCC2)c1=O [Palbociclib] (partner 0.5 µM)', 'relative viability', 0.389),
  ('O=C(O)c1ccc(-c2c[nH]c3ncc(-c4ccccc4)cc23)cc1C1CCCC1 + Cc1nc(NC(=O)N2CCC[C@H]2C(N)=O)sc1-c1ccnc(C(C)(C)C(F)(F)F)c1 [Alpelisib] (partner 2 µM)', 'relative viability', 0.584);

----------
Form field: relative viability (one value per entry).
System: NCI-H1666
Assay: relative viability (nuclei count vs DMSO), 5 days (fraction); higher = more cells survive
Conditions: first compound 8 µM
test_readout: relative viability

INSERT INTO measurements (compound, target_system, result_number) VALUES
  ('C=C1C(=O)O[C@@H](CCCCCCCC)[C@@H]1C(=O)O [C-75] + NC(=O)Nc1cc(-c2cccc(F)c2)sc1C(=O)N[C@H]1CCCNC1 [AZD7762] (partner 0.2 µM)', 'NCI-H1666', 0.708),
  ('C=C1C(=O)O[C@@H](CCCCCCCC)[C@@H]1C(=O)O [C-75] + CCNC(=O)c1noc(-c2cc(C(C)C)c(O)cc2O)c1-c1ccc(CN2CCOCC2)cc1 [Luminespib] (partner 0.01 µM)', 'NCI-H1666', 0.827),
  ('C=C1C(=O)O[C@@H](CCCCCCCC)[C@@H]1C(=O)O [C-75] + COc1cccc2cc(-c3nc([C@H]4CC[C@H](C(=O)O)CC4)n4ncnc(N)c34)[nH]c12 [OSI-027] (partner 0.5 µM)', 'NCI-H1666', 0.786),
  ('C=C1C(=O)O[C@@H](CCCCCCCC)[C@@H]1C(=O)O [C-75] + O=C(c1cc(Cc2n[nH]c(=O)c3ccccc23)ccc1F)N1CCN(C(=O)C2CC2)CC1 [Olaparib] (partner 8 µM)', 'NCI-H1666', 0.653),
  ('C=C1C(=O)O[C@@H](CCCCCCCC)[C@@H]1C(=O)O [C-75] + COc1cc2c(Oc3ccc(NC(=O)C4(C(=O)Nc5ccc(F)cc5)CC4)cc3F)ccnc2cc1OCCCN1CCOCC1 [Foretinib] (partner 0.25 µM)', 'NCI-H1666', 0.777);
